Some binders, each annotated with its measured ELISA hMET vs parental.
Test Target: T1, human cMET (human, UniProt P08581 25-932, limits assumed)
T1 construct: also called hMET; HGFR
T1 sequence (P08581 25-932 limits assumed): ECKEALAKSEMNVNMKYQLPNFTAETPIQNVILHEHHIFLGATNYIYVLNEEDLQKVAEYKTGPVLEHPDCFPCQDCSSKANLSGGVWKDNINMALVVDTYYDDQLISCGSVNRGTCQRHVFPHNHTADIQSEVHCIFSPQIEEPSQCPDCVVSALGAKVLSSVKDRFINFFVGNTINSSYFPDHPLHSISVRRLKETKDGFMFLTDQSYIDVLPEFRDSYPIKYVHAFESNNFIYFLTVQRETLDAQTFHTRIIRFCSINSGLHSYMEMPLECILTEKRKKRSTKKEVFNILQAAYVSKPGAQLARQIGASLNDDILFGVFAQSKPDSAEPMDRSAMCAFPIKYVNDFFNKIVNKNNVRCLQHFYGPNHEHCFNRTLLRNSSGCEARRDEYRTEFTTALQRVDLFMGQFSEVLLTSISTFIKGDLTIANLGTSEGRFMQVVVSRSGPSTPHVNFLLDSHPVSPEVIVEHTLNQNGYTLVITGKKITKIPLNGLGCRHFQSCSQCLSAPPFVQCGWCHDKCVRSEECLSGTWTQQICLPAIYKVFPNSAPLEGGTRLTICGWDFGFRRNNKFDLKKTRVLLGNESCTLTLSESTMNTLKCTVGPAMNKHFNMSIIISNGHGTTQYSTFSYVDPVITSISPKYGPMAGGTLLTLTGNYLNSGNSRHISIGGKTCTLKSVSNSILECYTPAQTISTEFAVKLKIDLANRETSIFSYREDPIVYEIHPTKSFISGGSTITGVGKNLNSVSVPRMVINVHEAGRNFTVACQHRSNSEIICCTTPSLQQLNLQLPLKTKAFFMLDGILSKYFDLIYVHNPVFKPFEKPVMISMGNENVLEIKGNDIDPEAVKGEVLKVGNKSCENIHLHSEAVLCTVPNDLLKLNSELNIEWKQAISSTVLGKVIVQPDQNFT
Assay Info: ELISA on human cMET, ratio against the parental antibody
Lab note: record just the number, no unit beside it.

Solved cases (3 shown):
{"Binder": "humanized P3D12 antibody, HC SEQ ID NO: 105 (P3D12 VH-fra) / LC SEQ ID NO: 48 (P3D12 VL-abb/sdr) (antibody, V domains shown) VH: QVQLQQSGAEVKKPGASVKVSCKASGYTFTSYWMHWVKQRPGQGLDWIGYIKPSTDNTEYNQKFKDRVTLTADKSTSTAYMQLSNLISEDTAVYYCARSYGNYPLMDYWGQGTSVTVSS VL: QIVLTQSPATLSLSPGERATLSCRASQSVTSNYLYWYQQKPGSSPRLLIYSTSNLASGVPARFSGSGSGTDYTLTISRLEPEDFASYFCHQWSSYPPTFGSGTKLEIKR", "ELISA hMET vs parental": 1.8}
{"Binder": "humanized P3D12 antibody, HC SEQ ID NO: 108 (P3D12 VH-cdr) / LC SEQ ID NO: 49 (P3D12 VL-cdr) (antibody, V domains shown) VH: QVQLVQSGAEVKKPGASVKVSCKASGYTFTSYWMHWVKQAPGQGLDWIGYIKPSTDNTEYNQKFKDKATLTADKSTSTAYMELSSLRSEDTAVYYCARSYGNYPLMDYWGQGTTVTVSS VL: QIVLTQSPATLSLSPGERATLSCSASSSVTSNYLYWYQQKPGSSPRLLIYSTSNLASGVPARFSGSGSGTSYTLTISRLEPEDFASYFCHQWSSYPPTFGSGTKLEIKR", "ELISA hMET vs parental": 1}
{"Binder": "humanized P3D12 antibody, HC SEQ ID NO: 108 (P3D12 VH-cdr) / LC SEQ ID NO: 48 (P3D12 VL-abb/sdr) (antibody, V domains shown) VH: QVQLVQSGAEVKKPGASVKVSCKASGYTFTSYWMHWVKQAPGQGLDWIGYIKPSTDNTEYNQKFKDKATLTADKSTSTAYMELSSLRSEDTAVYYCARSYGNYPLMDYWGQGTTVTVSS VL: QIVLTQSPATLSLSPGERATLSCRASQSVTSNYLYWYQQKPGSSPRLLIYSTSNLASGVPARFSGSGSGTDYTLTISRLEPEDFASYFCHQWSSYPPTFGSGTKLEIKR", "ELISA hMET vs parental": 1.3}

Consider the additional binder presented here.
// query Reported ELISA hMET vs parental, binder humanized P3D12 antibody, HC SEQ ID NO: 105 (P3D12 VH-fra) / LC SEQ ID NO: 49 (P3D12 VL-cdr) (antibody, V domains shown) VH: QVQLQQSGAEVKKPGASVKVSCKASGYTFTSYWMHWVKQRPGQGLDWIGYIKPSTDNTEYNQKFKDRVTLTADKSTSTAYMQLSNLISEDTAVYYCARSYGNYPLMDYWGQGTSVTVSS VL: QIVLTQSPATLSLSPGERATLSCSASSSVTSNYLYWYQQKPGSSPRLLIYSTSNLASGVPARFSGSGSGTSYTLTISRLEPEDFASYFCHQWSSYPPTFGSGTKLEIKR : ____
// result 1.7
